The reader will find reported viability decrease values listed item by item below.
assay: growth inhibition of GSK3B-pretreated HCT116 cells – cell-based, CellTiter-Glo, 0.2 to 20 µM (AID 1117336); conditions: HCT116 viability after GSK3B inhibitor, at 20 µM, active compounds read high
Write it as a number; the unit % goes unstated.

In [3]: df
Out[3]:
                                   compound              metric  observed_measurement
0               OCC(O)CS (stereo not given)  viability decrease                 -84.2
1  C[C@H]1C[C@H]2[C@@H]3CCC4=CC(=O)C=C[C@]4(C)[C@@]3(Cl)[C@@H](O)C[C@]2(C)[C@@]1(O)C(=O)CO  viability decrease                  -136
2  COc1cc2c(cc1OC)C(C(C(=O)N(CCc1ccc(OC)c(OC)c1OC)CCc1ccc(OC)c(OC)c1OC)c1ccccc1)=NCC2 (stereo not given)  viability decrease                  74.1
3  CCCCC1=NC2(CCCC2)C(=O)N1Cc1ccc(-c2ccccc2-c2nn[nH]n2)cc1  viability decrease                   -43
4  COC(=O)c1ccccc1C(=O)c1ccc(OCCN2CCCCC2)cc1  viability decrease                  26.9

Asked: Provide viability decrease value for the following compound: CC(C)[N+](C)(C)CC(O)COc1cccc2ccccc12 (stereo not given)
Given back: 7.2

Asked: Provide viability decrease value for the following compound: Cc1ccccc1N=Nc1ccc(N=Nc2c(O)ccc3ccccc23)c(C)c1
Given back: 2.6

Asked: Provide viability decrease value for the following compound: CCOC(=O)[C@H](CCc1ccccc1)N[C@@H](C)C(=O)N1Cc2ccccc2C[C@H]1C(=O)O
Given back: -30.1

Asked: Provide viability decrease value for the following compound: COc1ccc2nc(NC(=O)Nc3ccccc3)sc2c1
Given back: 11.7

Asked: Provide viability decrease value for the following compound: C[C@H](N)C(=O)N[C@@H](C)C(=O)NC1[C@H]2CN(c3nc4c(cc3F)c(=O)c(C(=O)O)cn4-c3ccc(F)cc3F)C[C@@H]12 (stereo not given in full)
Given back: 80.7

* * *

test: stimulators of nuclear beta-catenin in C2C12, primary screen, imaging, WNT3A-conditioned medium, mouse C2C12, NPC library (AID 1117326); details: at 10 µM; further: reference of the scale not given here
The source made the active and inactive calls. Rule as the data show it: active = nuclear beta-catenin stimulation mostly above about 4.2% (no sharp cut-off); inactive = mostly below about 10%.
Answer with one of the outcomes given here: t for active, f for inactive

>>> df
                                   compound  qualitative_label
0  CC(=O)CC(c1ccccc1)c1c(O)c2ccccc2oc1=O (centres undefined)                  f
1                           N[C@@H]1CONC1=O                  f
2  CO/N=C(/C(=O)N[C@@H]1C(=O)N2C(C(=O)OCOC(=O)C(C)(C)C)=C(C)CS[C@H]12)c1csc(N)n1                  f
3  Cc1ccc(C(=O)Oc2ccc(C(O)CNC(C)(C)C)cc2OC(=O)c2ccc(C)cc2)cc1 (centres undefined)                  f
4        OC(Cn1cncn1)(Cn1cncn1)c1ccc(F)cc1F                  f

Asked: Short answer needed: outcome of this test for CC(=O)O[C@]1(C(C)=O)CC[C@H]2[C@@H]3C=C(C)C4=CC(=O)CC[C@]4(C)[C@H]3CC[C@@]21C ?
Given back: f

Asked: Short answer needed: outcome of this test for Cn1cc(C(=O)[C@@H]2CCc3nc[nH]c3C2)c2ccccc21 ?
Given back: f

Asked: Short answer needed: outcome of this test for Cc1ccc2c(Br)cc(Br)c(O)c2n1 ?
Given back: t

Asked: Short answer needed: outcome of this test for COc1ccc(C(=O)N2CCN(CC(=O)N3CCOCC3)CC2)cc1 ?
Given back: f

Asked: Short answer needed: outcome of this test for NC(=O)N1c2ccccc2CC(=O)c2ccccc21 ?
Given back: f
